Below is a list of entries, each paired with its recorded IC50 value.
Target: Peptidoglycan-N-acetylglucosamine deacetylase (Streptococcus pneumoniae (strain ATCC BAA-255 / R6), UniProt Q8DP63)
Sequence (Q8DP63 whole entry): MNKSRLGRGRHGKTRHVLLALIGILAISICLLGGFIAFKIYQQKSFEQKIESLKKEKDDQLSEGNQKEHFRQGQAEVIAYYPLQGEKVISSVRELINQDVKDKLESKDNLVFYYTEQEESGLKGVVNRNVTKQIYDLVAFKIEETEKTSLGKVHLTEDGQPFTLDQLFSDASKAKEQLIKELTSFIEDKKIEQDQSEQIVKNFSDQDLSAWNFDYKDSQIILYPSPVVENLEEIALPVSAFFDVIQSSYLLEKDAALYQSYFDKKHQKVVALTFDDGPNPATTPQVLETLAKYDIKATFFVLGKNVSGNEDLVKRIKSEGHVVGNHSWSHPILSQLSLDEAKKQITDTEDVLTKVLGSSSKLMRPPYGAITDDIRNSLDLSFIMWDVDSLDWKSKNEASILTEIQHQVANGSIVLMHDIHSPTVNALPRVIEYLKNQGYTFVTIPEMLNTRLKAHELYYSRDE
Test: Inhibition of Streptococcus pneumoniae Pgda expressed in Escherichia coli BL21 (DE3) cells transformed with pET28bSpPgdA232-431 plasmid using compound pre-incubated with 1Eq DTT and using acetoxymethyl-4-methylumbelliferone as substrate measured at 5 min intervals over 60 mins in presence of ZnCl2 by fluorescence assay
Field: numeric (µM). Do not append units.

CC(=S)N[C@H]1[C@H](OCc2ccccc2)O[C@H](CO)[C@@H](O)[C@@H]1S :: 11

Note: attention shifts to another entry.
Which measured IC50 value corresponds to CC(=O)N[C@H]1[C@H](OCc2ccccc2)O[C@H](CO)[C@@H](O)[C@@H]1S ?
5000
